- systemTested: T1, Erythropoietin P2 epitope peptide (Homo sapiens)
- T1 chain: LKLYTGEACRTGDR
- assayComment: microscale thermophoresis

- binder: "DFDIWPLRTAWPLS [EPO-P2 antisense peptide]"
  Kd: "816 µM"

FYI, the data here is from paper PMC4100090.
